Tested on: KB-3-1
Assay: Cytotoxic Profiling of Annotated Libraries Using Quantitative High-Throughput Screening (AID 1296008); further: on the % scale 0 is the no-effect control and ±100 the full control effect; nearly all actives have a fitted effect of over 60% in size
Details: Five cell lines viability, CellTiter-Glo ATP luminescence, 48-72 h; active compounds read low
Records with an inconclusive call do not appear.
Reported values of max response for individual entries

{"STRUCTURE_STRING": "Cc1ccc(S(=O)(=O)NCc2ccc(C(=O)NCCN(Cc3ccccc3)C(C)C)cc2)cc1", "max response (%)": -24.2}
{"STRUCTURE_STRING": "Cc1ccnn1-c1ccc(C(=O)N2CCN(S(=O)(=O)c3ccc(Cl)c(C(F)(F)F)c3)CC2)cc1", "max response (%)": -18.8}
{"STRUCTURE_STRING": "Cc1c(O)cc2c(c1C)O[C@](C)(CCC[C@H](C)CCC[C@H](C)CCCC(C)C)CC2", "max response (%)": -6.57}

###

Assay: Primary qHTS for inhibitors of nuclear receptor binding SET domain protein 2 (NSD2) in an RCH-ACV wild type WT cells (2C) (AID 1645877); further: nearly all actives have a fitted effect of over 70% in size
Conditions: RCH-ACV (leukaemia line) NSD2 WT (2C) viability, CellTiter-Glo, 72 h; series mostly up to 44.9 µM
Inconclusive results are not listed. Activity calls are given as the source filed them. The call rests on the fitted dose curve; in most records, active means well fitted inhibition curve with a large enough effect; inconclusive means small, poorly fitted or top-dose-only effect; inactive means no such curve, though single readings can be large or run the other way.
Labels: Yes = active, No = inactive

{"COMPOUND": "COc1cc2c(Nc3cc(F)c(Cl)c(Cl)c3)ncnc2cc1OCC1CCCN(C)CCC1", "CLASS_ASSIGNMENT": "Yes"}
{"COMPOUND": "COc1ccc(C2(CNC(=O)c3ccc(NC(=O)c4ccco4)cc3)CCOCC2)cc1", "CLASS_ASSIGNMENT": "No"}
{"COMPOUND": "COC1CC(=O)C23C(=O)NC(Cc4c[nH]c5ccccc45)C2C(C)C2(C)OC2C3/C=C/CC(C)CC1O (stereo unspecified)", "CLASS_ASSIGNMENT": "Yes"}
{"COMPOUND": "C=CC(=O)Nc1cccc(Nc2nc(Nc3ccc(OCCOC)cc3)ncc2F)c1", "CLASS_ASSIGNMENT": "Yes"}
{"COMPOUND": "CCOC(=O)c1cnn(-c2ccccc2)c1NC(=O)c1cc2nc(-c3ccco3)cc(C(F)(F)Cl)n2n1", "CLASS_ASSIGNMENT": "No"}
{"COMPOUND": "COc1ccc(CCc2nc3c(C)c(-c4c(C)noc4C)c(C)cc3n2CCN2CCOCC2)cc1", "CLASS_ASSIGNMENT": "Yes"}

###

Tested on: KB-3-1
Assay: Cytotoxic Profiling of Annotated Libraries Using Quantitative High-Throughput Screening (AID 1296008); further: on the % scale 0 is the no-effect control and ±100 the full control effect; nearly all actives have a fitted effect of over 60% in size
Conditions: Five cell lines viability, CellTiter-Glo ATP luminescence, 48-72 h; active compounds read low
Inconclusive results are not listed.
The entries below are paired with their reported max response.

{"COMPOUND": "CNCCN1CCC(c2cc(CN(C)C(=O)c3cccc(Oc4ccccc4)c3)ccn2)CC1", "READOUT_UNIT": "%", "max response": 8.17}
{"COMPOUND": "CCCOc1ccc(CCc2nc3cc(-c4c(C)noc4C)ccc3n2CCN2CCOCC2)cc1", "READOUT_UNIT": "%", "max response": -3.99}
{"COMPOUND": "COc1c(C(O)CC(C)C)ccc2c1C(=O)OCc1cc(C)cc(O)c1O2 (centres undefined)", "READOUT_UNIT": "%", "max response": -22.7}
{"COMPOUND": "Cc1ccc(N2CCN(S(=O)(=O)N3CCCCC3)CC2)c(C)c1", "READOUT_UNIT": "%", "max response": -2.41}
{"COMPOUND": "COc1ccc([C@H](Cc2ccncc2)c2ccccc2)cc1OC1CCCC1", "READOUT_UNIT": "%", "max response": -4.42}
{"COMPOUND": "CCOC(=O)C1(CCOc2ccccc2)CCN(Cc2ccc(O)c(Cl)c2)CC1", "READOUT_UNIT": "%", "max response": -15.3}
{"COMPOUND": "O=C(Nc1ccccc1Br)NC1CCN(c2ccc(C(F)(F)F)cn2)C1 (centres undefined)", "READOUT_UNIT": "%", "max response": -16.5}
{"COMPOUND": "C1=Cc2ccccc2C(=C2CCN(CCCCc3nn[nH]n3)CC2)c2ccccc21", "READOUT_UNIT": "%", "max response": -8.87}
{"COMPOUND": "COc1ccc2nccc(C(=O)CC[C@@H]3CCN(CC#Cc4cc(F)cc(F)c4F)C[C@@H]3C(=O)O)c2c1", "READOUT_UNIT": "%", "max response": 5.2}
{"COMPOUND": "Cc1ccc(C(C)C)c(O[C@@H]2O[C@H](CO)[C@@H](O)[C@H](O)[C@H]2O)c1", "READOUT_UNIT": "%", "max response": -7.27}
{"COMPOUND": "COC1=CC(=O)O/C1=C(/OC)[C@@H]1O[C@H]1c1ccccc1", "READOUT_UNIT": "%", "max response": -13.4}
{"COMPOUND": "CC(C)c1c(O)ccc2c1CC[C@H]1C(C)(C)CCC[C@]21C", "READOUT_UNIT": "%", "max response": 7.3}
{"COMPOUND": "COCCN(C(=O)c1cc(OC)c(OC)c(OC)c1)c1nc(-c2ccccc2)cs1", "READOUT_UNIT": "%", "max response": 5.9}
{"COMPOUND": "Cc1ccnc(NC(=O)C(C)c2cccc(C(=O)c3ccccc3)c2)c1 (centres undefined)", "READOUT_UNIT": "%", "max response": -17.5}
